target: Luciferin 4-monooxygenase (Photinus pyralis); assay: qHTS assay to identify small molecule inhibitors of firefly luciferase (AID 1224835); also: nearly all actives have a fitted effect of over 25% in size; conditions: purified P. pyralis luciferase, luminescence inhibition; series mostly up to 115 µM
Results filed as inconclusive are left out. Activity calls are given as the source filed them. Calls follow the shape of the dose curve; as a rule, active = well fitted inhibition curve with a large enough effect in the repeat runs; inconclusive = weak or mixed curves; inactive = flat fitted curve, though single readings scatter.
Labels: active, inactive

1) Oc1c(I)cc(I)cc1I :: inactive
2) Cc1cc(C)c(C(=O)P(=O)(c2ccccc2)c2ccccc2)c(C)c1 :: inactive
3) CCOC(=O)C(O)(c1ccc(Cl)cc1)c1ccc(Cl)cc1 :: inactive
4) CCN(CC)C(=O)Cl :: inactive
5) COc1cc(OC)c(OC)cc1C=O :: inactive
6) N#Cc1cc([N+](=O)[O-])ccc1N :: inactive
7) Cc1cc(C(C)(C)c2ccc(O)c(C)c2)ccc1O :: inactive
8) CN1CSC(=S)N(C)C1 :: inactive
9) ClC(Cl)=C(c1ccc(Cl)cc1)c1ccccc1Cl :: inactive
10) Cc1ccc(N(SC(F)(Cl)Cl)S(=O)(=O)N(C)C)cc1 :: active
11) Clc1ccccc1-c1ccccc1Cl :: inactive
